Reference source: patent US9453031B2

- target_of_assay: ATR (Homo sapiens (Human), UniProt Q13535)
- Sequence (Q13535 whole entry): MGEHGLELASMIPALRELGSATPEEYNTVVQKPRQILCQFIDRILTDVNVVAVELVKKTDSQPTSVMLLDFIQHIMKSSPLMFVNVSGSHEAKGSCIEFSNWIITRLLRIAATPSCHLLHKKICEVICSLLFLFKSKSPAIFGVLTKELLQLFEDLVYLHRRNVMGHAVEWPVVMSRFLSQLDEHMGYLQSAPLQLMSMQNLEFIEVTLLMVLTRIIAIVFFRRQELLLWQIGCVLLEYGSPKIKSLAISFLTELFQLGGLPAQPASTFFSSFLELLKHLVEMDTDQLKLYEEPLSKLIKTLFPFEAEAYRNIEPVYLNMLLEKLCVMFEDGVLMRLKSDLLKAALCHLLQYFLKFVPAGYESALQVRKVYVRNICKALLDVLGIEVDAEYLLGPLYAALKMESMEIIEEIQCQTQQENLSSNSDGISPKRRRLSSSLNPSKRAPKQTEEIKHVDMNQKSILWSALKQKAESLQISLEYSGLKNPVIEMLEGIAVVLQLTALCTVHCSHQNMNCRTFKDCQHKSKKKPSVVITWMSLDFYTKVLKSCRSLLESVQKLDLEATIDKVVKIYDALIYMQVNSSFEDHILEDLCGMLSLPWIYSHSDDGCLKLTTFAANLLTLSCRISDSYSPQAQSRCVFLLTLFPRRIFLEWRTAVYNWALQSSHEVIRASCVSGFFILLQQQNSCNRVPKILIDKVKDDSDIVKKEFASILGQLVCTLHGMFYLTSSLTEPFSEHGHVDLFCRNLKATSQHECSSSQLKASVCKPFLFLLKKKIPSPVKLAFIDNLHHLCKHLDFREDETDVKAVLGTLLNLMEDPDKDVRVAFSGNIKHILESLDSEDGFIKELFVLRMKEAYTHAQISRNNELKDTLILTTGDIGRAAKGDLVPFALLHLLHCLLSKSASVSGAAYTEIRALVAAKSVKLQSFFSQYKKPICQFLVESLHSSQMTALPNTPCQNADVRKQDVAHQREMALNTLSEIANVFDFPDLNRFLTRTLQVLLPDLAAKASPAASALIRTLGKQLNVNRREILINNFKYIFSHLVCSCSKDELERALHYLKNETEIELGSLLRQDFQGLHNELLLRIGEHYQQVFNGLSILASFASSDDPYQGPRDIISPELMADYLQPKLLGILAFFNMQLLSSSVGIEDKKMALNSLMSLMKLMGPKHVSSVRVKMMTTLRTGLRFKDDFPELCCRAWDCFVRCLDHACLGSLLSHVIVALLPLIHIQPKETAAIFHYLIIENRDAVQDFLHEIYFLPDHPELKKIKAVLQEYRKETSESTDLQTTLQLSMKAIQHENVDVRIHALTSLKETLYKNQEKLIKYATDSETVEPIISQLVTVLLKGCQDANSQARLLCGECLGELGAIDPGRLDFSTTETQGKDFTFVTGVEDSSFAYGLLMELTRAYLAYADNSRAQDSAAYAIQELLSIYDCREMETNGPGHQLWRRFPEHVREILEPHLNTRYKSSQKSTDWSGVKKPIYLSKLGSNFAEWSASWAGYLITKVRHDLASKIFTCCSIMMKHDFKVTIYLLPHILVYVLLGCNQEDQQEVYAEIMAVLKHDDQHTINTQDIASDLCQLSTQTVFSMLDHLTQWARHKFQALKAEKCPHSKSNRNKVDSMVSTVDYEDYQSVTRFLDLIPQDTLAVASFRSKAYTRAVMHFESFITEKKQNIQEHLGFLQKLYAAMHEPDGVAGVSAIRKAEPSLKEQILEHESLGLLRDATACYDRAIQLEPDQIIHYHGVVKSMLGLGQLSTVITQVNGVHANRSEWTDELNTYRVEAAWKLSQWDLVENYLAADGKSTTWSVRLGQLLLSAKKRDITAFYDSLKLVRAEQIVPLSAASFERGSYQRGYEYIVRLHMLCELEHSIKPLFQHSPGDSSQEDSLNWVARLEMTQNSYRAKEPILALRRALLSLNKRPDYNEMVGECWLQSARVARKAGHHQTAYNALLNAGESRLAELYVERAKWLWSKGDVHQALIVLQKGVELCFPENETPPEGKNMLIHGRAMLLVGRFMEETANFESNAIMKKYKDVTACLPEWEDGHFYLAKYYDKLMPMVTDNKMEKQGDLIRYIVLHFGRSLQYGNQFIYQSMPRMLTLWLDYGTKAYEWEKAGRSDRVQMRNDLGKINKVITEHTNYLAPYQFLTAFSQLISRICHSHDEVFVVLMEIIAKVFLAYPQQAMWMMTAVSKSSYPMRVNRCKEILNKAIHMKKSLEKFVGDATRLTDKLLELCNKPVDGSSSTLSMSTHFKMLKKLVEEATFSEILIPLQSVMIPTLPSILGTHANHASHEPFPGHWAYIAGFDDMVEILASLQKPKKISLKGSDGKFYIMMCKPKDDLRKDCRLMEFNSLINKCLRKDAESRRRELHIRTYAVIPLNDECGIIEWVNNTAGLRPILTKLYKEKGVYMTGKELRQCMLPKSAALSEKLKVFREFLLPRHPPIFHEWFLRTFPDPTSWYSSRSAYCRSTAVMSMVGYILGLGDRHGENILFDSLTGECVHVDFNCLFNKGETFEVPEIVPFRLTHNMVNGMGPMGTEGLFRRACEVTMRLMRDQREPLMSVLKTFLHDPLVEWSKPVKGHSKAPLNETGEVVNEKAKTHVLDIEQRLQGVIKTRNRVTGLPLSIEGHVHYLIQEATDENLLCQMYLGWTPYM
- method_notes: Cellular ATR inhibition, western blot of CHK1(S345) phosphorylation in hydroxyurea treated cells
- Format: cell-based
- condition_set: HT29 cells, hydroxyurea 2.5 mM
- Experimental: In addition to the selective system described above, Example compounds presented here were screened for their ability to inhibit intracellular ATR using a western blot assay to detect phosphorylation of the ATR substrate CHK1(S345) in hydroxyurea treated cells. […] The protein content of the lysates was determined by the modified method of Bradford (Sigma, Ref. B6916). […] The bands were visualized and quantified using an Odyssey infrared imaging system (Li-Cor Biosciences). […]
pEC50: −log10 of the molar value.
// values below are reported pEC50
parameter_measured: pEC50

CNc1nc2ccccc2n1-c1nc2c(c(C(C)(C)O)n1)OCC1COCCN21 (stereo not shown) [Example 39] :: 6.00 to 7.00
CC(C)(O)c1nc(-c2cccc3[nH]ccc23)nc2c1OC[C@@H]1COCCN21 [Example 44] :: 6.00 to 7.00
CCOC(=O)N1CCC(c2nc(-c3cccc4[nH]ccc34)nc3c2OC[C@@H]2COCCN32)(S(C)(=O)=O)CC1 [Example 68] :: 6.00 to 7.00
CC(C)(c1nc(-c2ccnc3[nH]ccc23)nc2c1OCC1COCCN21)S(C)(=O)=O (stereo not shown) [Example 16] :: 6.00 to 7.00
C[S@TB17](=O)(=O)C1(c2nc(-c3cc(F)cc4[nH]ccc34)nc3c2OCCC2COCCN32)CCOCC1 (stereo not shown) [Example 33] :: 6.00 to 7.00
CC(C)(c1nc(-c2c(F)ccc3[nH]ccc23)nc2c1OC[C@H]1COCCN21)S(C)(=O)=O [Example 26] :: < 6.00
CS(=O)(=O)C1(c2nc(-c3cccc4[nH]ccc34)nc3c2OCC[C@@H]2COCCN32)CCOCC1 [Example 22] :: 6.00 to 7.00
CNc1nc2ccccc2n1-c1nc2c(c(C3(S(C)(=O)=O)CCOCC3)n1)OCC1COCCN21 (stereo not shown) [Example 12] :: 6.00 to 7.00
CS(=O)(=O)C1(c2nc(-c3cccc4[nH]ccc34)nc3c2OCC2COCCN32)CC1 (stereo not shown) [Example 27] :: 6.00 to 7.00
CS(=O)(=O)C1(c2nc(-c3ccnc4[nH]ccc34)nc3c2OCC2COCCN32)CCOCC1 (stereo not shown) [Example 18] :: > 7.00
COc1cc(-c2nc3c(c(C4(S(C)(=O)=O)CC4)n2)OC[C@@H]2COCCN32)c2cc[nH]c2c1 [Example 75] :: 6.00 to 7.00
CC(C)(O)c1nc(-c2cc(F)cc3[nH]ccc23)nc2c1OC[C@@H]1COCCN21 [Example 45] :: 6.00 to 7.00
CS(=O)(=O)C1(c2nc(-c3cccc4[nH]ccc34)nc3c2OCC[C@H]2COCCN32)CCOCC1 [Example 23] :: 6.00 to 7.00
CC(C)(c1nc(-c2cccc3[nH]ncc23)nc2c1OC[C@H]1COCCN21)S(C)(=O)=O [Example 21] :: < 6.00
CNc1nc2ccc(Cl)cc2n1-c1nc2c(c(C3(S(C)(=O)=O)CCC3)n1)OC[C@@H]1COCCN21 [Example 95] :: < 6.00
Cc1cc2c(-c3nc4c(c(C(C)(C)S(C)(=O)=O)n3)OC[C@@H]3COCCN43)cccc2[nH]1 [Example 103] :: 6.00 to 7.00

---

- target_of_assay: UniProt:P78527
- method_notes: DNAPK activity assay (ADP Hunter Plus)
- Format: biochemical
- condition_set: 75 μM ATP
pIC50: −log10 of the molar value.
parameter_measured: pIC50

CNc1nc2ccc(Cl)cc2n1-c1nc2c(c(C3(S(C)(=O)=O)CC3)n1)OC[C@@H]1COCCN21 [Example 87] :: 6.68
CS(=O)(=O)C1(c2nc(-c3cccc4[nH]ccc34)nc3c2OC[C@@H]2COCCN32)CC1 [Example 6] :: 5.34
CNc1nc2ccccc2n1-c1nc2c(c(C3(S(C)(=O)=O)CC3)n1)OC[C@@H]1COCCN21 [Example 66] :: 5.62
COc1cc(-c2nc3c(c(C(C)(C)S(C)(=O)=O)n2)OC[C@@H]2COCCN32)c2cc[nH]c2c1 [Example 72] :: 5.80
CNc1nc2cc(Cl)ccc2n1-c1nc2c(c(C(C)(C)S(C)(=O)=O)n1)OC[C@@H]1COCCN21 [Example 80] :: 5.00
COc1cc(-c2nc3c(c(C4(S(C)(=O)=O)CC4)n2)OC[C@@H]2COCCN32)c2cc[nH]c2c1 [Example 75] :: 5.74
CS(=O)(=O)C1(c2nc(-c3cc(C(F)(F)F)cc4[nH]ccc34)nc3c2OC[C@@H]2COCCN32)CCC1 [Example 112] :: 5.00
CNc1nc2ccc(F)cc2n1-c1nc2c(c(C(C)(C)S(C)(=O)=O)n1)OC[C@@H]1COCCN21 [Example 83] :: 5.51
CS(=O)(=O)C1(c2nc(-c3ccnc4[nH]ccc34)nc3c2OC[C@@H]2COCCN32)CCOCC1 [Example 30] :: 4.60
CC(C)(c1nc(-c2cccc3[nH]ccc23)nc2c1OC[C@@H]1COCCN21)S(=O)(=O)C1CC1 [Example 61] :: 5.00
CC(C)(c1nc(-n2c(N3CCOCC3)nc3ccccc32)nc2c1OC[C@@H]1COCCN21)S(C)(=O)=O [Example 73] :: 5.00
CC(C)(c1nc(-c2cc(F)cc3[nH]ccc23)nc2c1OC[C@@H]1COCCN21)S(C)(=O)=O [Example 71] :: 5.00
COc1cc(-c2nc3c(c(C4(S(C)(=O)=O)CCOCC4)n2)OC[C@@H]2COCCN32)c2cc[nH]c2c1 [Example 29] :: 4.60
CNc1nc2cc(Cl)ccc2n1-c1nc2c(c(C3(S(C)(=O)=O)CC3)n1)OC[C@@H]1COCCN21 [Example 86] :: 5.00
CNc1nc2ccc(Cl)cc2n1-c1nc2c(c(C(C)(C)S(C)(=O)=O)n1)OC[C@@H]1COCCN21 [Example 81] :: 5.00
Cc1cc2c(-c3nc4c(c(C(C)(C)S(C)(=O)=O)n3)OC[C@@H]3COCCN43)cccc2[nH]1 [Example 103] :: 5.00
CC(C)(c1nc(-n2c(N)nc3ccccc32)nc2c1OC[C@@H]1COCCN21)S(C)(=O)=O [Example 70] :: 6.13
CS(=O)(=O)C1(c2nc(-c3cc(F)cc4[nH]ccc34)nc3c2OC[C@@H]2COCCN32)CCOCC1 [Example 28] :: 4.60
CNc1nc2cc(F)ccc2n1-c1nc2c(c(C(C)(C)S(C)(=O)=O)n1)OC[C@@H]1COCCN21 [Example 82] :: 5.00
CNc1nc2cc(F)ccc2n1-c1nc2c(c(C3(S(C)(=O)=O)CCC3)n1)OC[C@@H]1COCCN21 [Example 96] :: 5.00
CS(=O)(=O)C1(c2nc(-c3cc(F)cc4[nH]ccc34)nc3c2OC[C@@H]2COCCN32)CC1 [Example 74] :: 6.00
CNc1nc2ccccc2n1-c1nc2c(c(C(C)(C)S(C)(=O)=O)n1)OCC[C@@H]1COCCN21 [Example 62] :: 5.00
COc1cc(-c2nc3c(c(C(C)(C)O)n2)OC[C@@H]2COCCN32)c2cc[nH]c2c1 [Example 46] :: 5.55
CS(=O)(=O)C1(c2nc(-c3cc(C(F)(F)F)cc4[nH]ccc34)nc3c2OC[C@@H]2COCCN32)CCOCC1 [Example 105] :: 5.00
CS(=O)(=O)C1(c2nc(-c3cc(C(F)(F)F)cc4[nH]ccc34)nc3c2OC[C@@H]2COCCN32)CC1 [Example 108] :: 5.76
CC(C)(c1nc(-c2cccc3[nH]ccc23)nc2c1OC[C@H]1COCCN21)S(C)(=O)=O [Example 15] :: 5.54
CNc1nc2ccc(F)cc2n1-c1nc2c(c(C3(S(C)(=O)=O)CCC3)n1)OC[C@@H]1COCCN21 [Example 97] :: 5.17
CS(=O)(=O)C1(c2nc(-c3ccc(F)c4[nH]ccc34)nc3c2OC[C@@H]2COCCN32)CCOCC1 [Example 106] :: 5.94
CC(C)(c1nc(-c2c(F)ccc3[nH]ccc23)nc2c1OC[C@H]1COCCN21)S(C)(=O)=O [Example 26] :: 5.00

---

- target_of_assay: UniProt:P10635
- Sequence (P10635 whole entry): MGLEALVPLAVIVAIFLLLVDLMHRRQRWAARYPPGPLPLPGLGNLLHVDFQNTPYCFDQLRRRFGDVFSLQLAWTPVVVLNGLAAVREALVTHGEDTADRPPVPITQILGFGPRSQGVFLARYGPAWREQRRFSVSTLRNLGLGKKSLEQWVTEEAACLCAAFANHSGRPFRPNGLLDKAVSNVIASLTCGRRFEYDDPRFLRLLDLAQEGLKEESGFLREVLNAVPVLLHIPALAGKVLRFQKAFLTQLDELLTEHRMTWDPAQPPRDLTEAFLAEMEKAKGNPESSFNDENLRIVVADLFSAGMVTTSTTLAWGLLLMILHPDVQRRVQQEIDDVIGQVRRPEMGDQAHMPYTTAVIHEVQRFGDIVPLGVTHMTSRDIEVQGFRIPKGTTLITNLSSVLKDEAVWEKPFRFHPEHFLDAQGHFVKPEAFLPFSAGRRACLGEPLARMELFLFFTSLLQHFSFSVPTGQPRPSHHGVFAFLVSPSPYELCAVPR
- method_notes: CYP inhibition assay (P450-Glo)
- Type: in vitro ADME
- condition_set: recombinant CYP
pIC50: −log10 of the molar value.
parameter_measured: pIC50

CNc1nc2ccccc2n1-c1nc2c(c(C(C)(C)S(C)(=O)=O)n1)OC[C@@H]1COCCN21 :: < 4.30
